Assign inhibition at 30 µM to each entry below.
# assayExplanation: Antiproliferative activity against human PANC1 cells at 30 uM after 72 hrs by MTT assay
# Type: functional
# runConditions: PANC-1, 72 h

Please state, for each entry, its recorded inhibition at 30 µM.
1. Nc1ccc(OCCOCCOc2no[n+]([O-])c2S(=O)(=O)c2ccccc2)c(C(=O)Oc2ccc(-c3cc(=S)ss3)cc2)c1
2. Cc1cccc(NC(=O)Nc2ccc(OC(=O)CCCO[N+](=O)[O-])c(C(=O)Oc3ccc(-c4cc(=S)ss4)cc3)c2)c1
3. Nc1ccc(OC(=O)CCCO[N+](=O)[O-])c(C(=O)Oc2ccc(-c3cc(=S)ss3)cc2)c1

Return:
1. 97.1%
2. -14.2%
3. -10.5%
